Source listed as the supplement of paper PMC8975748.

Could you please report measured mean cell size for the items listed next?
Test system: Saccharomyces cerevisiae BY4741 SeMeCo community
Test: mean cell size (pixel area) (pixels); higher = larger cells
Settings: 10 µM; 24 h; SM minimal medium
Counter-ions that a name gives are not always drawn.
Please give the numeric answer without any surrounding text.

Prompt line: Return reported mean cell size; argument: `CCOC(=O)C1=C(COCCN)NC(C)=C(C(=O)OC)[C@@H]1c1ccccc1Cl`
Response line: 12.5

Prompt line: Return reported mean cell size; argument: CO/N=C(\C(=O)N[C@@H]1C(=O)N2C(C(=O)O)=C(Cn3ccc(=N)n3CCO)CS[C@H]12)c1csc(N)n1 [Cefoselis Sulfate]
Response line: 12.3

Prompt line: Return reported mean cell size; argument: `CCC(=O)NS(=O)(=O)c1ccc(-c2c(-c3ccccc3)noc2C)cc1`
Response line: 12.6

Prompt line: Return reported mean cell size; argument: Nc1ccc(S(=O)(=O)NC(=O)c2ccccc2)cc1 [Sulfabenzamide]
Response line: 12.5

Prompt line: Return reported mean cell size; argument: `CCCN(CCc1cccs1)[C@H]1CCc2c(O)cccc2C1`
Response line: 12.6

Prompt line: Return reported mean cell size; argument: O=C1C(CC[S+]([O-])c2ccccc2)C(=O)N(c2ccccc2)N1c1ccccc1 (racemic) [(+/-)-Sulfinpyrazone]
Response line: 12.5

Prompt line: Return reported mean cell size; argument: `C[C@]12CC[C@@H]3c4ccc(O)cc4CC[C@H]3[C@@H]1C[C@@H](O)[C@@H]2O`
Response line: 12.4

Prompt line: Return reported mean cell size; argument: `O=C(CCCN1CCN(c2ccccn2)CC1)c1ccc(F)cc1`
Response line: 12.3

Prompt line: Return reported mean cell size; argument: CC(N)C12CC3CC(CC(C3)C1)C2 (configuration not stated)
Response line: 12.5

Prompt line: Return reported mean cell size; argument: NC(=O)[C@@H]1CC[C@@H]2CN1C(=O)N2OS(=O)(=O)O [Avibactam sodium]
Response line: 12.7

Prompt line: Return reported mean cell size; argument: `Cc1ccc(-c2cc(C(F)(F)F)nn2-c2ccc(S(N)(=O)=O)cc2)cc1`
Response line: 12.5

Prompt line: Return reported mean cell size; argument: C[C@H](NCc1ccc(OCc2cccc(F)c2)cc1)C(N)=O [Safinamide Mesylate]
Response line: 12.4

Prompt line: Return reported mean cell size; argument: CN(Cc1ccc(C(C)(C)C)cc1)Cc1cccc2ccccc12 [Butenafine HCl]
Response line: 12.2

Prompt line: Return reported mean cell size; argument: `CC1(C)CC[C@]2(C(=O)O)CC[C@]3(C)C(=CC[C@@H]4[C@@]5(C)CC[C@H](O)C(C)(C)[C@@H]5CC[C@]43C)[C@@H]2C1`
Response line: 12.4

Prompt line: Return reported mean cell size; argument: O=C(O)c1cc(/N=N/c2ccc(O)c(C(=O)O)c2)ccc1O [Olsalazine Sodium]
Response line: 12.6

Prompt line: Return reported mean cell size; argument: `O=C(O)c1ccccc1C(=O)Nc1ccc(S(=O)(=O)Nc2nccs2)cc1`
Response line: 12

Prompt line: Return reported mean cell size; argument: CN1C2CCC1CC(OC(=O)C(O)c1ccccc1)C2 (configuration not stated) [Homatropine Bromide]
Response line: 12.3

----------
Test system: Saccharomyces cerevisiae BY4741 SeMeCo community
Assay: z-score of prototroph abundance vs DMSO median; higher = larger share of this subpopulation than in DMSO controls
Settings: 10 µM; 24 h; SM minimal medium; subpopulation (auxotrophy): Prototroph
experimental-readout: z-score of prototroph abundance
Please give the numeric answer without any surrounding text.

Prompt line: Return reported z-score of prototroph abundance; argument: CO[C@@]1(NC(=O)CSC[C@@H](N)C(=O)O)C(=O)N2C(C(=O)O)=C(CSc3nnnn3C)CS[C@@H]21 [Cefminox Sodium]
Response line: -0.58

Prompt line: Return reported z-score of prototroph abundance; argument: `CCCCCCCCc1ccc(CCC(N)(CO)CO)cc1`
Response line: 2.04

Prompt line: Return reported z-score of prototroph abundance; argument: Cc1cc(CC(C)CC(C)(C)C)n(O)c(=O)c1 (stereo not drawn)
Response line: -16.9

Prompt line: Return reported z-score of prototroph abundance; argument: C[C@@H](O)[C@H]1C(=O)N2C(C(=O)O)=C(S[C@@H]3CN[C@H](C(=O)Nc4cccc(C(=O)O)c4)C3)[C@H](C)[C@H]12 [Ertapenem sodium]
Response line: 0.33

Prompt line: Return reported z-score of prototroph abundance; argument: CO/N=C(\C(=O)N[C@@H]1C(=O)N2C(C(=O)O)=C(COC(N)=O)CS[C@H]12)c1ccco1 [Cefuroxime sodium]
Response line: 0.23

Prompt line: Return reported z-score of prototroph abundance; argument: `CN1CCN(c2c(F)cc3c(=O)c(C(=O)O)cn4c3c2OCN4C)CC1`
Response line: 0.49

Prompt line: Return reported z-score of prototroph abundance; argument: CN1CCCN=C1/C=C/c1cccc(O)c1 [Oxantel Pamoate]
Response line: 1.15

Prompt line: Return reported z-score of prototroph abundance; argument: `COc1ncnc(NS(=O)(=O)c2ccc(N)cc2)c1OC`
Response line: -0.71
